Test protocol: Pharmacokinetic study (PK) after single i.v. and i.p. administration
Format: in vivo, male CD-1 mice
Condition context: male, CD-1, mouse, in vivo, iv, 2 mg/kg, Cmax ng/ml (extrapolated Cinitial)
Experimental readout: Cmax (ng/mL)
Lab book: enter the figure in ng/mL, no units written.

Ask: Any idea what its Cmax is? The molecule is N=C(N)NCCC[C@@H]1NC(=O)[C@@H]2CSSC[C@H](NC(=O)[C@H](Cc3ccc4ccccc4c3)NC(=O)[C@H](CCCNC(=N)N)NC(=O)[C@H](CCCNC(=N)N)NC(=O)[C@H]3CCCN3C(=O)CNC1=O)C(=O)N[C@@H](Cc1ccc(O)cc1)C(=O)N[C@@H](CCCNC(N)=O)C(=O)N[C@@H](CCCCN)C(=O)N1CCC[C@@H]1C(=O)N1CCC[C@H]1C(=O)N[C@@H](Cc1ccc(O)cc1)C(=O)N[C@@H](CCCNC(=N)N)C(=O)N[C@@H](CCCNC(N)=O)C(=O)N2
Result: 28600

====

Test protocol: in vitro
Condition context: human
Bridge positions count the residues as written; N and C are the ends. Square brackets hold non-standard residues; d marks the D form. Peptide text beside a SMILES is read from it. 2Nal = N[C@@H](Cc1ccc2ccccc2c1)C(=O)O; Cit = NC(=O)NCCC[C@H](N)C(=O)O
Experimental readout: GI50 at 48 h (µM)
Lab book: enter the figure in µM, no units written.

INSERT INTO results (compound, experimental_readout, numeric_value) VALUES
  ('C[C@@H](O)[C@@H]1NC(=O)[C@H](Cc2c[nH]cn2)NC(=O)[C@H](Cc2ccc(O)cc2)NC(=O)[C@@H]2CCCN2C(=O)[C@H]2CCCN2C(=O)[C@H](CCCCN)NC(=O)[C@H](CCC(N)=O)NC(=O)[C@H](Cc2ccc(O)cc2)NC(=O)[C@@H]2CSSC[C@H](NC1=O)C(=O)N[C@@H](CCCNC(=N)N)C(=O)NCC(=O)N1CCC[C@@H]1C(=O)N[C@@H](CCCNC(=N)N)C(=O)N[C@@H](CCCNC(=N)N)C(=O)N[C@@H](Cc1c[nH]c3ccccc13)C(=O)N2 [Ex. 120] (cyclo(YHTCRG[dP]RRWCYQK[dP]P); disulfide 4-11)', 'GI50 at 48 h', 78);

Consider the additional compound presented here.
Ask: Any idea what its GI50 at 48 h is? The compound is N=C(N)NCCC[C@@H]1NC(=O)[C@@H]2CSSC[C@H](NC(=O)[C@H](Cc3ccc4ccccc4c3)NC(=O)[C@H](CCCNC(=N)N)NC(=O)[C@H](CCCNC(=N)N)NC(=O)[C@H]3CCCN3C(=O)CNC1=O)C(=O)N[C@@H](Cc1ccc(O)cc1)C(=O)N[C@@H](CCCCN)C(=O)N[C@@H](CCCCN)C(=O)N1CCC[C@@H]1C(=O)N1CCC[C@H]1C(=O)N[C@@H](Cc1ccc(O)cc1)C(=O)N[C@@H](CCCNC(=N)N)C(=O)N[C@@H](CCCNC(N)=O)C(=O)N2 [Ex. 79] (cyclo(YR[Cit]CRG[dP]RR[2Nal]CYKK[dP]P); disulfide 4-11)
Result: 94

====

Recorded IC50 values for a group of molecules are listed next.
Study system: CXCR4 (Homo sapiens, UniProt P61073)
Sequence (P61073 whole entry): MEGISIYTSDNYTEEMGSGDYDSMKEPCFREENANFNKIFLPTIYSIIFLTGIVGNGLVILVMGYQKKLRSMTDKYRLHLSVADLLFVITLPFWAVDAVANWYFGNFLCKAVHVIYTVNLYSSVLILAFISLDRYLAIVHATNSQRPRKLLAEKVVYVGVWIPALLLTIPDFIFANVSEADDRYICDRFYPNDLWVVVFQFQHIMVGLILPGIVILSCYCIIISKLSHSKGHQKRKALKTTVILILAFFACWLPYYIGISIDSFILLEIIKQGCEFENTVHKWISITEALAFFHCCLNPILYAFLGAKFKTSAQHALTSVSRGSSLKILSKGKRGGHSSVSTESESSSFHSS
Test protocol: Ca2+-assay method 1: CXCR4-antagonizing activity
Type: cell-based
Design: expressed in transfected cells
Condition context: method 1 (Ex. 1-53), CXCR4 transfected pre-B cells, Fura-2; read-out: IC50 (nM) Ca^2+ assay
Square brackets hold non-standard residues; d marks the D form. Peptide text beside a SMILES is read from it. 2Nal = N[C@@H](Cc1ccc2ccccc2c1)C(=O)O; Cit = NC(=O)NCCC[C@H](N)C(=O)O
Lab book: enter the figure in nM, no units written.

Examples with their reported IC50 follow.
INSERT INTO measurements (molecule, experimental_readout, numeric_value) VALUES
  ('CC(C)[C@@H]1NC(=O)[C@H](Cc2ccc3ccccc3c2)NC(=O)[C@H](CCCNC(=N)N)NC(=O)[C@H](CCCNC(=N)N)NC(=O)[C@@H]2CCCN2C(=O)[C@H](C(C)C)NC(=O)[C@H](CCCNC(=N)N)NC(=O)[C@H](Cc2ccccc2)NC(=O)[C@H](CCCNC(N)=O)NC(=O)[C@H](CCCNC(=N)N)NC(=O)[C@H](Cc2ccc(O)cc2)NC(=O)[C@@H]2CCCN2C(=O)[C@H]2CCCN2C(=O)[C@H](CCCCN)NC(=O)[C@H](CCCNC(N)=O)NC(=O)[C@H](Cc2ccc(O)cc2)NC1=O [compound 22] (cyclo(YR[Cit]FRVPRR[2Nal]VY[Cit]K[dP]P))', 'IC50', 300),
  ('CC(C)[C@@H]1NC(=O)[C@H](CCCNC(N)=O)NC(=O)[C@H](CCCNC(=N)N)NC(=O)[C@H](Cc2ccc(O)cc2)NC(=O)[C@@H]2CCCN2C(=O)[C@H]2CCCN2C(=O)[C@H](CCCCN)NC(=O)[C@H](CCCNC(N)=O)NC(=O)[C@H](Cc2ccc(O)cc2)NC(=O)[C@H](Cc2ccccc2)NC(=O)[C@H](Cc2ccc3ccccc3c2)NC(=O)[C@H](CCCNC(=N)N)NC(=O)[C@H](CCCNC(=N)N)NC(=O)[C@H](CCCNC(=N)N)NC1=O [compound 4] (cyclo(YR[Cit]VRRR[2Nal]FY[Cit]K[dP]P))', 'IC50', 2540);

Ask: Any idea what its IC50 is? The molecule is CC(C)[C@@H]1NC(=O)[C@H](CCCNC(N)=O)NC(=O)[C@H](CCCNC(=N)N)NC(=O)[C@H](Cc2ccc(O)cc2)NC(=O)[C@@H]2CCCN2C(=O)[C@H]2CCCN2C(=O)[C@H](CCCCN)NC(=O)[C@H](CCCNC(N)=O)NC(=O)[C@H](Cc2ccc(O)cc2)NC(=O)[C@H](C(C)C)NC(=O)[C@H](Cc2ccc3ccccc3c2)NC(=O)[C@H](CCCNC(=N)N)NC(=O)[C@H](CCCNC(=N)N)NC(=O)[C@H](CCCNC(=N)N)NC1=O [Ex. 6] (cyclo(YR[Cit]VRRR[2Nal]VY[Cit]K[dP]P))
Result: 1930

====

Test protocol: Pharmacokinetic study (PK) after single i.v. and i.p. administration
Type: in vivo, male CD-1 mice
Condition context: male, CD-1, mouse, in vivo, iv, 2 mg/kg
Experimental readout: AUC(0-inf)
Could you write the number and then its unit?

Ask: Any idea what its AUC(0-inf) is? The compound is N=C(N)NCCC[C@@H]1NC(=O)[C@@H]2CSSC[C@H](NC(=O)[C@H](Cc3ccc4ccccc4c3)NC(=O)[C@H](CCCNC(=N)N)NC(=O)[C@H](CCCNC(=N)N)NC(=O)[C@H]3CCCN3C(=O)CNC1=O)C(=O)N[C@@H](Cc1ccc(O)cc1)C(=O)N[C@@H](CCCNC(N)=O)C(=O)N[C@@H](CCCCN)C(=O)N1CCC[C@@H]1C(=O)N1CCC[C@H]1C(=O)N[C@@H](Cc1ccc(O)cc1)C(=O)N[C@@H](CCCNC(=N)N)C(=O)N[C@@H](CCCNC(N)=O)C(=O)N2
Result: 1900 ng·h/mL

====

Study system: CXCR4 (Homo sapiens)
Test protocol: Ca2+-assay method 2 (Flexstation, SDF-1 induced calcium mobilization)
Type: cell-based
Parameters: expressed in transfected cells; host or cells: mouse pre-B cell line 300-19
Condition context: method 2 (Ex. 54-160), mouse pre-B cell line 300-19 with human CXCR4, 10 nM SDF-1; read-out: IC50 (nM) Ca^2+ assay
Bridge positions count the residues as written; N and C are the ends. Square brackets hold non-standard residues; d marks the D form. Peptide text beside a SMILES is read from it. 2Nal = N[C@@H](Cc1ccc2ccccc2c1)C(=O)O; Cit = NC(=O)NCCC[C@H](N)C(=O)O
Experimental readout: IC50 (nM)
Lab book: enter the figure in nM, no units written.

Ask: Any idea what its IC50 is? The molecule is N=C(N)NCCC[C@@H]1NC(=O)[C@@H]2CSSC[C@H](NC(=O)[C@H](Cc3ccc4ccccc4c3)NC(=O)[C@H](CCCNC(=N)N)NC(=O)[C@H](CCCNC(=N)N)NC(=O)[C@H]3CCCN3C(=O)CNC1=O)C(=O)N[C@@H](Cc1ccc(O)cc1)C(=O)N[C@@H](CCC(N)=O)C(=O)N[C@@H](CCCCN)C(=O)N1CCC[C@@H]1C(=O)N1CCC[C@H]1C(=O)N[C@@H](CO)C(=O)N[C@@H](CCCNC(=N)N)C(=O)N[C@@H](CCCNC(N)=O)C(=O)N2 [Ex. 89] (cyclo(SR[Cit]CRG[dP]RR[2Nal]CYQK[dP]P); disulfide 4-11)
Result: 0.5

====

Recorded IC50 values for a group of molecules are listed next.
Study system: CXCR4 (Homo sapiens)
Test protocol: Ca2+-assay method 2 (Flexstation, SDF-1 induced calcium mobilization)
Type: cell-based
Design: expressed in transfected cells; host or cells: mouse pre-B cell line 300-19
Condition context: method 2 (Ex. 54-160), mouse pre-B cell line 300-19 with human CXCR4, 10 nM SDF-1; read-out: IC50 (nM) Ca^2+ assay
Bridge positions count the residues as written; N and C are the ends. Square brackets hold non-standard residues; d marks the D form. Peptide text beside a SMILES is read from it. 2Nal = N[C@@H](Cc1ccc2ccccc2c1)C(=O)O; Dab = NCC[C@H](N)C(=O)O
Lab book: enter the figure in nM, no units written.

INSERT INTO results (molecule, study_system, experimental_readout, numeric_value) VALUES
  ('C[C@@H]1NC(=O)[C@H](CCCNC(=N)N)NC(=O)[C@H](Cc2ccc(O)cc2)NC(=O)[C@@H]2CCCN2C(=O)[C@H]2CCCN2C(=O)[C@H](CCCCN)NC(=O)[C@H](CCC(N)=O)NC(=O)[C@H](Cc2ccc(O)cc2)NC(=O)[C@@H]2CSSC[C@H](NC1=O)C(=O)N[C@@H](CCCNC(=N)N)C(=O)NCC(=O)N1CCC[C@@H]1C(=O)N[C@@H](CCCNC(=N)N)C(=O)N[C@@H](CCCNC(=N)N)C(=O)N[C@@H](Cc1ccc3ccccc3c1)C(=O)N2 [Ex. 95] (cyclo(YRACRG[dP]RR[2Nal]CYQK[dP]P); disulfide 4-11)', 'CXCR4 (Homo sapiens)', 'IC50', 2.9);

Consider the additional molecule presented here.
Ask: Any idea what its IC50 is? The molecule is C[C@@H](O)[C@@H]1NC(=O)[C@H](CCCNC(=N)N)NC(=O)[C@H](Cc2ccc(O)cc2)NC(=O)[C@@H]2CCCN2C(=O)[C@H]2CCCN2C(=O)[C@H](CCCCN)NC(=O)[C@H](CCC(N)=O)NC(=O)[C@H](Cc2ccc(O)cc2)NC(=O)[C@@H]2CSSC[C@H](NC1=O)C(=O)N[C@@H](CCCNC(=N)N)C(=O)NCC(=O)N1CCC[C@@H]1C(=O)N[C@@H](CCN)C(=O)N[C@@H](CCCNC(=N)N)C(=O)N[C@@H](Cc1c[nH]c3ccccc13)C(=O)N2 [Ex. 110] (cyclo(YRTCRG[dP][Dab]RWCYQK[dP]P); disulfide 4-11)
Result: 1.7

These entries and their values trace back to patent US8895695B2.
